# Test system: Mitochondrial G3P-DH (glycerol 3-phosphate dehydrogenase), rat liver
# procedure-text: Mitochondrial G3P-DH activity in liver of steroid-fed rats (enzyme induction in rat liver by C19 steroids)
# Type: in vivo, rat (male Sprague Dawley)
# assay-context: 0.01 wt % steroid in diet, 6 days, rat liver mitochondria
Consider the following compounds; for each one, report its G3P-DH (% control).
Kindly provide the numeric value in % control only, without the unit symbol.

Form field: G3P-DH (% control) recorded for C[C@]12CC[C@H]3[C@@H](C(=O)C=C4C[C@@H](O)CC[C@@]43C)[C@@H]1CC[C@@H]2O [Δ5-Androstene 3β,17β-diol-7-one, Δ5-Androstene-3β,17β-diol-7-one] with Mitochondrial G3P-DH (glycerol 3-phosphate dehydrogenase), rat liver (enter value) 130

Field entry: C[C@]12CC[C@H](O)CC1=CC(=O)[C@@H]1[C@@H]2CC[C@]2(C)C(=O)CC[C@@H]12 [7-keto DHEA, Δ5-Androstene-3β-ol-7,17-dione] 183

Field entry: `CC(=O)O[C@H]1CC[C@@]2(C)C(=CC(=O)[C@H]3[C@@H]4CC[C@H](OC(C)=O)[C@@]4(C)CC[C@@H]32)C1` 173

Field entry: C[C@]12CC[C@H]3[C@@H]([C@H](O)C=C4C[C@@H](O)CC[C@@]43C)[C@@H]1CC[C@@H]2O [Δ5-Androstene 3β,7α,17β-triol] 99

Field entry: C[C@]12CC[C@H](O)CC1=CC[C@@H]1[C@@H]2CC[C@]2(C)C(=O)CC[C@@H]12 [DHEA, Δ5-androstene 3β-hydroxy, 17-one, reference compound] 139
